measured on: T1, human mesothelin (recombinant, soluble, purified; 40 kDa C-terminal polypeptide of the mesothelin precursor) (human, UniProt Q13421 296-598, limits assumed)
T1 construct: also called soluble mesothelin
measurement protocol: SPR (Biacore 3000), Fab on covalently immobilized human mesothelin
parameter measured: Kd (nM)
Unit nM implied. Number only.

Please give measured Kd of the following entry: MOR06626 Fab (Fab, V domains shown, Purified Fab) VH: QVQLVQSGAEVKKPGASVKVSCKASGYTFTGNYINWVRQAPGQGLEWMGIINPTKGWTLYAQKFQGRVTMTRDTSISTAYMELSSLRSEDTAVYYCARWHHGTWIFDYWGQGTLVTVSS VL: DIVLTQPPSVSGAPGQRVTISCSGSSSNIGSNYVSWYQQLPGTAPKLLIYNDNQRPSGVPDRFSGSKSGTSASLAITGLQSEDEADYYCSTYDRRTFSVFGGGTKLTVLG 0.67
